Target: MTHFD2 recombinant human enzyme (Homo sapiens, UniProt P13995)
Sequence (P13995 36-350): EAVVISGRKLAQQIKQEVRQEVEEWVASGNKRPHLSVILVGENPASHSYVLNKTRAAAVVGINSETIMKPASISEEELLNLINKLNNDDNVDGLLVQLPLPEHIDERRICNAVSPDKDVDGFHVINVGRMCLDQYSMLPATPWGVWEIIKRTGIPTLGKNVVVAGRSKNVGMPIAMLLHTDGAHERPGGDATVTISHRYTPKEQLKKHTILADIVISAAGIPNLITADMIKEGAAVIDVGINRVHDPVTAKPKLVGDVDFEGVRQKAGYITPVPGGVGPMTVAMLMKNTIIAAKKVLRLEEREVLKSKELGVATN
Assay: MTHFD2 inhibition assay (NAD(P)H-Glo luminescence)
QUANTITY NAME: IC50

// below: answered compounds
| COMPOUND | IC50 |
| --- | --- |
| COC[C@H]1CN(c2cc(C)c3c4c(c(=O)oc3c2C)CN(C(=O)c2cc(OC)c(C(=O)NS(=O)(=O)N3C5CCC3CC5)cc2F)CC4)CCN1C | 1 to 10 nM |
| COC[C@H]1CN(c2cc(C)c3c4c(c(=O)oc3c2C)CN(C(=O)c2ccc(C(=O)NS(=O)(=O)N(C)C)c(N3CCCC5(CC5)C3)c2)CC4)CCN1C | 10 to 100 nM |
| [2H]C([2H])([2H])Oc1cc(C(=O)N2CCc3c(c(=O)oc4c(C)c(N5CCN(C)[C@@H](COC)C5)cc(Cl)c34)C2)c(F)cc1C(=O)NS(=O)(=O)N1CCCC1 | 1 to 10 nM |
| COC[C@H]1CN(c2ccc3c4c(c(=O)oc3c2C)CN(C(=O)c2ccc(C(=O)NS(=O)(=O)C3(C)CC3)c(OC3CCC3)c2)CC4)CCN1C | 10 to 100 nM |
| COC[C@H]1CN(c2cc(Cl)c3c4c(c(=O)oc3c2C)CN(C(=O)c2cc(N(C)C)c(C(=O)NS(=O)(=O)N3CCCC3)cc2F)CC4)CCN1C | 1 to 10 nM |

Would you kindly share the measured IC50 for CCOc1cc(C(=O)N2CCc3c(c(=O)oc4c(C)c(N5CCN(C)[C@@H](COC)C5)cc(C)c34)C2)c(F)cc1C(=O)NS(=O)(=O)N(C)C1CC1 ?
1 to 10 nM
